# target_system: Relaxin receptor 1 (Homo sapiens) (UniProt Q9HBX9)
# Sequence (Q9HBX9 whole entry, looked up): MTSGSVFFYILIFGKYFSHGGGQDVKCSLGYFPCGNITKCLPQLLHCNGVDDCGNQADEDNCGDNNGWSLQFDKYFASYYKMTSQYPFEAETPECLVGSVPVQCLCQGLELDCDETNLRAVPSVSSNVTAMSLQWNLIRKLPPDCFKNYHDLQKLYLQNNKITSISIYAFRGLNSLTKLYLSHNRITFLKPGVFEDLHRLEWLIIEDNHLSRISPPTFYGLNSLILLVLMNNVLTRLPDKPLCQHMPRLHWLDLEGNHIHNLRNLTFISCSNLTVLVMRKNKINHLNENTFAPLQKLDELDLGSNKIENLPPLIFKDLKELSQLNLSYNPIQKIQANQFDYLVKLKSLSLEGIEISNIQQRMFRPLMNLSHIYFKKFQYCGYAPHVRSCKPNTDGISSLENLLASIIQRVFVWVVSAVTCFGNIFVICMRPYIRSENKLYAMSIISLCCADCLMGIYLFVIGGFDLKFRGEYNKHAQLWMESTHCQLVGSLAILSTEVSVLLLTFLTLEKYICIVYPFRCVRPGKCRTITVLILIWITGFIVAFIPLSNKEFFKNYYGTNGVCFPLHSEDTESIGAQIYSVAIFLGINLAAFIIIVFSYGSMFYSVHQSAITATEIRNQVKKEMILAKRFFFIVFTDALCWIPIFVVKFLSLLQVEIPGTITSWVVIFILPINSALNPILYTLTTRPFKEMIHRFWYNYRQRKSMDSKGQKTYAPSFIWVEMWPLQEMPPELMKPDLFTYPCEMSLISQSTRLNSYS
# experiment: qHTS Assay for Agonists of the Relaxin Receptor RXFP1: THP1 Hit Validation; also: nearly all actives have a fitted effect of over 60% in size
# conditions: THP1-RXFP1 cells, cAMP TR-FRET, 30 min; series mostly up to 115 µM
Inconclusive results are not listed. Active and inactive are the calls of the source. Calls follow the shape of the dose curve; as a rule, active = well fitted activation curve with a large enough effect; inconclusive = small, poorly fitted or top-dose-only effect; inactive = no such curve, though single readings can be large or run the other way.
API: response.call in T = active, F = inactive

Field: example entries. Status: answers known.
Nc1ncnc2c1ncn2C1OC(CO)C(O)C1O (stereo unspecified); F
Cc1ccc(C(=O)Nc2ccccc2C(N)=O)o1; F
CCCC(=O)Nc1ncnc2c1ncn2[C@@H]1O[C@@H]2OP(=O)(O)OC[C@H]2[C@H]1OC(=O)CCC; T
Cc1ccc(-c2ccc3nnc(SCC(=O)NCC4CCCO4)n3n2)cc1 (stereo unspecified); F
Cn1c(=O)c(C(=O)COc2ccc(C#N)cc2)c(N)n(Cc2ccccc2)c1=O; T
CCN(CC)S(=O)(=O)c1ccc(N2CCOCC2)c(NC(=O)c2cccc(C#N)c2)c1; T
CCN(CC)C(=O)c1cc(Cl)ccc1NC(=O)c1ccco1; F
O=C(O)CNC(=O)c1ccccc1NC(=O)c1ccco1; F

Which result was noted for this compound in the test: O=C1/C(=C/c2ccc(O)c(O)c2)Oc2cc(O)ccc21 F

# lookup: test call for CCc1cc2cc3c(cc2nc1SCC(=O)Nc1nccs1)OCO3 T

Record lookup: outcome of this test for NC(=S)c1cc2ccc(O)cc2oc1=O ? T
